molecular target: DNA repair nuclease/redox regulator APEX1 (Homo sapiens, UniProt P27695); assay: Inhibition of full length human APE1 assessed as reduction in endonuclease activity by measuring DNA cleavage of abasic sites using 6-FAM labelled two annealed oligonucleotides as AP site mimic substrate by fluorescence-based assay
Sequence (P27695 whole entry): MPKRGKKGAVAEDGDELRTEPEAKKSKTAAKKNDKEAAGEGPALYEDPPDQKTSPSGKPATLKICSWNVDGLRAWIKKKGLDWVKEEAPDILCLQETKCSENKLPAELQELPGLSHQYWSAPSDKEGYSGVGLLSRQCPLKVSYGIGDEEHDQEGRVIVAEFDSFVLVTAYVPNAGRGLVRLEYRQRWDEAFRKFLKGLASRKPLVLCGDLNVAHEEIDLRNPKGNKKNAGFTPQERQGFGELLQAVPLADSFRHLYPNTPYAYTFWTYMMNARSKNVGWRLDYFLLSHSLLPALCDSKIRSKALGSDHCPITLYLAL
pIC50: −log10 of the molar value.
Property measured: pIC50

Entry smiles	Measurement target	Property measured	Observed
C[C@H]1/C=C/CC(=O)N[C@H](c2ccc(C(F)(F)F)cc2)CC(=O)N[C@@H](Cc2c[nH]c3ccccc23)C(=O)N[C@H]1c1ccccc1	DNA repair nuclease/redox regulator APEX1 (Homo sapiens, UniProt P27695)	pIC50	4.58

(A) Cc1ccc([C@@H]2CC(=O)N[C@@H](Cc3c[nH]c4ccccc34)C(=O)N[C@@H](c3cccn3S(=O)(=O)c3ccc(C)cc3)[C@@H](C)/C=C/CC(=O)N2)cc1
(B) Cc1ccc(S(=O)(=O)n2cccc2[C@@H]2NC(=O)[C@H](Cc3c[nH]c4ccccc34)NC(=O)CCCNC(=O)C/C=C/[C@@H]2C)cc1
Incoming: Kindly compare A with B and tell me which has the lower pIC50 figure. Kindly state the label of the option you pick.
Outgoing: B
(B: 4.53, A: 5.60)
